The origin of these recorded values is patent US10456405B2.

- Tested on: apoE−/− mice
- test name: apoE−/− mouse atherosclerosis model, high-fat diet 10 weeks
- Assay type: in vivo
- run parameters: serum, high-fat diet 10 weeks, intragastric 150 mg/kg twice a day
Examples of compounds with documented LDL-C follow.
Report as a plain number; the unit mg/dL is understood.

Sample answers from the record:
Ask: Annotate the compound COc1cc(OC)c2c(=O)[nH]c(-c3cc(C)c(OCCO[N+](=O)[O-])c(C)c3)nc2c1 with its measured LDL-C.
Reply: 273

Ask: Determine from records and report LDL-C for COc1cc(OC)c2c(=O)[nH]c(-c3cc(C)c(OCCO)c(C)c3)nc2c1 [Compound H130, reference compound]
Reply: 273

Ask: Specify measured LDL-C for COc1cc(OC)c2c(=O)[nH]c(-c3cc(C)c(OCCOC(=O)CCC(=O)ONS(=O)(=O)c4cccc(S(C)(=O)=O)c4)c(C)c3)nc2c1 .
Reply: 315

Could you now consider this next compound?
Ask: # return recorded LDL-C for entry COc1cc(OC)c2c(=O)[nH]c(-c3cc(C)c(OCCOC(=O)OC4COC5C(O[N+](=O)[O-])COC45)c(C)c3)nc2c1 (stereo not shown)
Reply: 308
